- EXPERIMENT SUMMARY: Solubility of the HBr salt of Form A in selected solvents, estimated by solvent addition under ambient conditions
- Format: physicochemical
- SETUP CONDITIONS: DMF/water (1:4), aqueous with cosolvent or surfactant or cyclodextrin, thermodynamic from solid, solvent DMF/water (1:4), read-out: Solubility
OBSERVABLE: solubility

## Task Item Cc1cc(Nc2nc(C(O)c3ccc(F)cc3)nc3ccccc23)n[nH]1 (stereo not shown) [Form A] has what recorded solubility?
## Result < 2000 µg/mL

---

- EXPERIMENT SUMMARY: Solubility of the HBr salt of Form A in selected solvents, estimated by solvent addition under ambient conditions
- Type: physicochemical
- SETUP CONDITIONS: DMF/water (1:9), aqueous with cosolvent or surfactant or cyclodextrin, thermodynamic from solid, solvent DMF/water (1:9), read-out: Solubility
OBSERVABLE: solubility

## Task Item Cc1cc(Nc2nc(C(O)c3ccc(F)cc3)nc3ccccc23)n[nH]1 (stereo not shown) [Form A] has what recorded solubility?
## Result < 2000 µg/mL

---

- EXPERIMENT SUMMARY: Solubility of the HBr salt of Form A in selected solvents, estimated by solvent addition under ambient conditions
- Format: physicochemical
- SETUP CONDITIONS: MeOH/chloroform (1:1), organic solvent or mixture, thermodynamic from solid, solvent MeOH/chloroform (1:1), read-out: Solubility
OBSERVABLE: solubility

## Task Item Cc1cc(Nc2nc(C(O)c3ccc(F)cc3)nc3ccccc23)n[nH]1 (stereo not shown) [Form A] has what recorded solubility?
## Result 14 to 20 mg/mL

---

- EXPERIMENT SUMMARY: Solubility of the HBr salt of Form A in selected solvents, estimated by solvent addition under ambient conditions
- Format: physicochemical
- SETUP CONDITIONS: hexafluoroisopropanol, organic solvent or mixture, thermodynamic from solid, solvent HFIPA (hexafluoroisopropanol), read-out: Solubility
OBSERVABLE: solubility

## Task Item Cc1cc(Nc2nc(C(O)c3ccc(F)cc3)nc3ccccc23)n[nH]1 (stereo not shown) [Form A] has what recorded solubility?
## Result > 128 mg/mL

---

- EXPERIMENT SUMMARY: Solubility of the HBr salt of Form A in selected solvents, estimated by solvent addition under ambient conditions
- Type: physicochemical
- SETUP CONDITIONS: tetrahydrofuran, organic solvent or mixture, thermodynamic from solid, solvent THF, read-out: Solubility
OBSERVABLE: solubility

## Task Item Cc1cc(Nc2nc(C(O)c3ccc(F)cc3)nc3ccccc23)n[nH]1 (stereo not shown) [Form A] has what recorded solubility?
## Result < 2000 µg/mL

---

- EXPERIMENT SUMMARY: Solubility of the HBr salt of Form A in selected solvents, estimated by solvent addition under ambient conditions
- Type: physicochemical
- SETUP CONDITIONS: toluene, organic solvent or mixture, thermodynamic from solid, solvent Toluene, read-out: Solubility
OBSERVABLE: solubility

## Task Item Cc1cc(Nc2nc(C(O)c3ccc(F)cc3)nc3ccccc23)n[nH]1 (stereo not shown) [Form A] has what recorded solubility?
## Result < 2000 µg/mL

---

- EXPERIMENT SUMMARY: Solubility of the HBr salt of Form A in selected solvents, estimated by solvent addition under ambient conditions
- Assay type: physicochemical
- SETUP CONDITIONS: t-butanol/water (3:1), organic solvent or mixture, thermodynamic from solid, solvent t-Butanol/water (3:1), read-out: Solubility
- Protocol: The solubility of the HBr salt of Form A in selected solvents was estimated by solvent addition under ambient conditions to provide preliminary information for the polymorph screen. […] This material is sparingly soluble in methanol, methanol/chloroform (1:1), and methanol/tetrahydrofuran (˜14-20 mg/mL).
OBSERVABLE: solubility (µg/mL)
Output spec: scalar in µg/mL, unitless text.

## Task Item Cc1cc(Nc2nc(C(O)c3ccc(F)cc3)nc3ccccc23)n[nH]1 (stereo not shown) [Form A] has what recorded solubility?
## Result 6000

---

- EXPERIMENT SUMMARY: Solubility of the HBr salt of Form A in selected solvents, estimated by solvent addition under ambient conditions
- Format: physicochemical
- SETUP CONDITIONS: nitromethane, organic solvent or mixture, thermodynamic from solid, solvent Nitromethane, read-out: Solubility
OBSERVABLE: solubility

## Task Item Cc1cc(Nc2nc(C(O)c3ccc(F)cc3)nc3ccccc23)n[nH]1 (stereo not shown) [Form A] has what recorded solubility?
## Result < 2000 µg/mL

---

- EXPERIMENT SUMMARY: Solubility of the HBr salt of Form A in selected solvents, estimated by solvent addition under ambient conditions
- Assay type: physicochemical
- SETUP CONDITIONS: methanol, organic solvent or mixture, thermodynamic from solid, solvent MeOH, read-out: Solubility
OBSERVABLE: solubility

## Task Item Cc1cc(Nc2nc(C(O)c3ccc(F)cc3)nc3ccccc23)n[nH]1 (stereo not shown) [Form A] has what recorded solubility?
## Result 14 to 20 mg/mL

---

- EXPERIMENT SUMMARY: Solubility of the HBr salt of Form A in selected solvents, estimated by solvent addition under ambient conditions
- Assay type: physicochemical
- SETUP CONDITIONS: ethanol, organic solvent or mixture, thermodynamic from solid, solvent EtOH, read-out: Solubility
OBSERVABLE: solubility

## Task Item Cc1cc(Nc2nc(C(O)c3ccc(F)cc3)nc3ccccc23)n[nH]1 (stereo not shown) [Form A] has what recorded solubility?
## Result 3000 to 7000 µg/mL

---

- EXPERIMENT SUMMARY: Solubility of the HBr salt of Form A in selected solvents, estimated by solvent addition under ambient conditions
- Assay type: physicochemical
- SETUP CONDITIONS: DMF/water (1:2), aqueous with cosolvent or surfactant or cyclodextrin, thermodynamic from solid, solvent DMF/water (1:2), read-out: Solubility
OBSERVABLE: solubility (µg/mL)
Output spec: scalar in µg/mL, unitless text.

## Task Item Cc1cc(Nc2nc(C(O)c3ccc(F)cc3)nc3ccccc23)n[nH]1 (stereo not shown) [Form A] has what recorded solubility?
## Result 4000

---

- EXPERIMENT SUMMARY: Solubility of the HBr salt of Form A in selected solvents, estimated by solvent addition under ambient conditions
- Format: physicochemical
- SETUP CONDITIONS: MeOH/THF (1:1), organic solvent or mixture, thermodynamic from solid, solvent MeOH/THF (1:1), read-out: Solubility
OBSERVABLE: solubility

## Task Item Cc1cc(Nc2nc(C(O)c3ccc(F)cc3)nc3ccccc23)n[nH]1 (stereo not shown) [Form A] has what recorded solubility?
## Result 14 to 20 mg/mL

---

- EXPERIMENT SUMMARY: Solubility of the HBr salt of Form A in selected solvents, estimated by solvent addition under ambient conditions
- Format: physicochemical
- SETUP CONDITIONS: acetone, organic solvent or mixture, thermodynamic from solid, solvent Acetone, read-out: Solubility
OBSERVABLE: solubility

## Task Item Cc1cc(Nc2nc(C(O)c3ccc(F)cc3)nc3ccccc23)n[nH]1 (stereo not shown) [Form A] has what recorded solubility?
## Result < 2000 µg/mL

---

- EXPERIMENT SUMMARY: Solubility of the HBr salt of Form A in selected solvents, estimated by solvent addition under ambient conditions
- Type: physicochemical
- SETUP CONDITIONS: dichloromethane, organic solvent or mixture, thermodynamic from solid, solvent DCM, read-out: Solubility
OBSERVABLE: solubility

## Task Item Cc1cc(Nc2nc(C(O)c3ccc(F)cc3)nc3ccccc23)n[nH]1 (stereo not shown) [Form A] has what recorded solubility?
## Result < 2000 µg/mL
